Examples of binders with documented MOR EC50 follow.
- Tested on: µ-opioid receptor (MOR), Human-ORPM1 (human, UniProt P35372 1-400)
- Sequence (P35372 whole entry): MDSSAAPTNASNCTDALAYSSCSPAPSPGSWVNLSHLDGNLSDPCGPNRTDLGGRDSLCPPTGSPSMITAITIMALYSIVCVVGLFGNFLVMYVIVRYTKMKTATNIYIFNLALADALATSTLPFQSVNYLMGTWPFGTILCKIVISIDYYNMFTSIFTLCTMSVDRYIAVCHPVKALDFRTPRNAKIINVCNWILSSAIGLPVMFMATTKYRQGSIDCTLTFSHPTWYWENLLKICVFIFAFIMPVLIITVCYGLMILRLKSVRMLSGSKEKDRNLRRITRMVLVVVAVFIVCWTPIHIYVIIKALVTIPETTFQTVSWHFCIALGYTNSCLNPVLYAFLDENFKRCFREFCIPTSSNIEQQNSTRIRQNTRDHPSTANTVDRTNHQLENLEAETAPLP
- Method notes: cell-based or functional assay
Square brackets hold non-standard residues; d marks the D form. Bip = N[C@@H](Cc1ccc(-c2ccccc2)cc1)C(=O)O; Phe(4-F) = N[C@@H](Cc1ccc(F)cc1)C(=O)O; Dmt = Cc1cc(O)cc(C)c1C[C@H](N)C(=O)O; hPhe = N[C@@H](CCc1ccccc1)C(=O)O; β3hF = N[C@H](CC(=O)O)Cc1ccccc1; Sar = CNCC(=O)O

Input line: Value lookup for MOR EC50; key = H-[Dmt][dR][Phe(4-F)][Sar]-NH2 (SMILES Cc1cc(O)cc(C)c1C[C@H](N)C(=O)N[C@H](CCCNC(=N)N)C(=O)N[C@@H](Cc1ccc(F)cc1)C(=O)N(C)CC(N)=O) [H-DMT-r-Phe(4-F)-Sar-NH2]
Output line: ≤ 1 nM

Input line: Next record, please: H-[Dmt][dA]I[β3hF][Sar]-NH2 (SMILES CC[C@H](C)[C@H](NC(=O)[C@@H](C)NC(=O)[C@@H](N)Cc1c(C)cc(O)cc1C)C(=O)N[C@H](CC(=O)N(C)CC(N)=O)Cc1ccccc1) [H-DMT-a-ILeu-bhF-Sar-NH2]
Output line: ≤ 1 nM

Input line: Cool, now H-[Dmt][dR][Bip]K-NH2 (SMILES Cc1cc(O)cc(C)c1C[C@H](N)C(=O)N[C@H](CCCNC(=N)N)C(=O)N[C@@H](Cc1ccc(-c2ccccc2)cc1)C(=O)N[C@@H](CCCCN)C(N)=O) [H-DMT-r-Bip-K-NH2]
Output line: ≤ 200 nM

Input line: Thanks! And H-[Dmt][dA][hPhe][Sar]-NH2 (SMILES Cc1cc(O)cc(C)c1C[C@H](N)C(=O)N[C@H](C)C(=O)N[C@@H](CCc1ccccc1)C(=O)N(C)CC(N)=O) [H-DMT-a-hF-Sar-NH2] ?
Output line: ≤ 1 nM

Ref: patent US20190076400A1
